Species: Rattus norvegicus
Experiment: Open TG-GATES - Regimen: Single
Assay type: toxicity, organism-based, Sprague-Dawley
Set-up: regimen Single, gender Male, age 6 weeks
Conditions: in vivo, po, 10 mg/kg, 3 h, tissue Blood, route gavage, dose level Low
Measured Lym of individual entries
Note: unit % is implicit; provide only the numeric part.

| smiles-record | observable | unit-annotation | quantitative-readout |
| --- | --- | --- | --- |
| CN(C)CCN(Cc1cccs1)c1ccccn1 | Lym | % | 79.6 |
| CN(C)CCCN1c2ccccc2CCc2ccc(Cl)cc21 | Lym | % | 81 |

## Input Look up Lym for this compound: CN(C)CCCN1c2ccccc2CCc2ccccc21
## Output 78.6

## Input Let us now turn to CC1=C(/C=C/C(C)=C/C=C/C(C)=C/CO)C(C)(C)CCC1
## Output 81.4
